measuredTarget: human recombinant dopamine D2L receptor (Homo sapiens, UniProt P14416)
Construct: expressed in transfected cells; host or cells: CHO
Sequence (P14416 whole entry): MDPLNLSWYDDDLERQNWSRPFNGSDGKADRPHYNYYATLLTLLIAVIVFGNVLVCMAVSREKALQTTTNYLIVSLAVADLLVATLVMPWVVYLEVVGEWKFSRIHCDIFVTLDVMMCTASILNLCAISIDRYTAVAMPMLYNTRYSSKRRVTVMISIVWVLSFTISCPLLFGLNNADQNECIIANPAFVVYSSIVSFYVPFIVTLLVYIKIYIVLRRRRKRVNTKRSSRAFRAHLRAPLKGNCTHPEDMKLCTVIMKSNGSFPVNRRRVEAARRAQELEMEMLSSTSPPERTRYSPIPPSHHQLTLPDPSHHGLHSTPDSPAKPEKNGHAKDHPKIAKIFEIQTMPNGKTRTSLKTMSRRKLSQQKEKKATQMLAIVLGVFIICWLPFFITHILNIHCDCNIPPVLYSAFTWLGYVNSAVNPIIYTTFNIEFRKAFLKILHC
protocolText: Dopamine D2L radioligand binding ([3H]Spiperone)
runConditions: read-out: Dopamine D2L (1 μM), percent inhibition of specific binding; compound at 1 μM; 0.16 nM [3H]Spiperone
# binarize inhibition at 1 µM: threshold 30% inclusive, high side Y, low side N

1. Cc1ccc2c(c1)c1c(n2-c2cccc(N(C)C)c2)CCN(C)C1 ... Y
2. Cc1ccc2c(c1)c1c(n2-c2ccc(C(F)(F)F)nc2)CCN(C)C1 ... N
3. Cc1ccc2c(c1)c1c(n2-c2cscc2-c2cncc3ccccc23)CCN(C)C1 ... Y

Please check the record `Cc1ccc2c(c1)c1c(n2-c2ccc3ccncc3c2)CCN(C)C1` and state if its inhibition at 1 µM is at or above 30%.
Y

Assess whether reported inhibition at 1 µM for `Cc1csc(-c2cscc2-n2c3c(c4cc(C)ccc42)CN(C)CC3)c1` sits at 30% or higher.
Y

Check the entry `Cc1csc(-c2ccccc2-n2c3c(c4cc(C)ccc42)CN(C)CC3)c1` : does inhibition at 1 µM equal or exceed 30%?
N

Check if inhibition at 1 µM >= 30% (inclusive). Item: `Cc1ccc2c(c1)c1c(n2-c2ccc(-c3cnn(C)c3)cn2)CCN(C)C1`
N

Determine whether this compound has inhibition at 1 µM no lower than 30%: `Cc1ccc2c(c1)c1c(n2-c2cccc(-c3ccc(F)nc3)c2)CCN(C)C1`
N

Assess whether reported inhibition at 1 µM for `Cc1ccc2c(c1)c1c(n2-c2ccc(-c3cncc4ccccc34)cn2)CCN(C)C1` sits at 30% or higher.
N

Would you say `Cc1ccc2c(c1)c1c(n2-c2cccc(-c3cc4ccccc4s3)c2)CCN(C)C1` shows inhibition at 1 µM at minimum 30%?
N

Please indicate if the recorded inhibition at 1 µM for `Cc1ccc2c(c1)c1c(n2-c2cscc2-c2ccc(F)cc2)CCN(C)C1` meets or exceeds 30%.
Y

Test whether the compound `Cc1ccc2c(c1)c1c(n2-c2ccc(-c3c(C)noc3C)cn2)CCN(C)C1` records inhibition at 1 µM of 30% or higher.
N

Does the compound `Cc1ccc2c(c1)c1c(n2-c2ccccc2-c2cnn(C)c2)CCN(C)C1` have recorded inhibition at 1 µM that is 30% or more?
N

Does the compound `Cc1ccc2c(c1)c1c(n2-c2ccccc2-c2cccn2C)CCN(C)C1` have recorded inhibition at 1 µM that is 30% or more?
N

// inclusive: inhibition at 1 µM at least 30%? input: `Cc1ccc2c(c1)c1c(n2-c2cscc2-c2cnn(C)c2)CCN(C)C1`
N

Kindly determine if inhibition at 1 µM recorded for `Cc1ccc2c(c1)c1c(n2-c2ccccc2-c2sccc2C)CCN(C)C1` is above or exactly 30%.
Y

Check this compound for inhibition at 1 µM at or above 30%: `Cc1ccc2c(c1)c1c(n2-c2cccc(-c3ccc(O)nc3)c2)CCN(C)C1`
N

The values you see were collected from patent US9187471B2.
